# assayedTarget: Cytochrome P450 1A2 (Homo sapiens, UniProt P05177)
# Sequence (P05177 whole entry): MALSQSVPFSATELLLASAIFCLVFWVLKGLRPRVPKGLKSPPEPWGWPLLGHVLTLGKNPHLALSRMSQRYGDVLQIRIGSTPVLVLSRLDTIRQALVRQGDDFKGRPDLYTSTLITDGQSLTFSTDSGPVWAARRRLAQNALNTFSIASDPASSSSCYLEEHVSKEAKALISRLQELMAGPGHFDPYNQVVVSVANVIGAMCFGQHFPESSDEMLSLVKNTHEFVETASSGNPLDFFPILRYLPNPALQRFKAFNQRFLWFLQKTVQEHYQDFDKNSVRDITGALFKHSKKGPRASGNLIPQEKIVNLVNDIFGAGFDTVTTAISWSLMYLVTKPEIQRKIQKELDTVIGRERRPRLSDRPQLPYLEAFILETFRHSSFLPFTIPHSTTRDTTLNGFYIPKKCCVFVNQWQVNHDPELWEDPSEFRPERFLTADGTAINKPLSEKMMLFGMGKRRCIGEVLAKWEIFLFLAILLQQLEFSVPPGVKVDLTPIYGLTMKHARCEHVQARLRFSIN
# experimentalDetails: Inhibition of CYP1A2
# Assay type: ADME
recordedMetric: pIC50
Keep it numeric: pIC50 is minus log10 of the concentration in mol/L.

Q) So what's the measured pIC50 for this one? Cc1cc(NCCO)nc(-c2ccc(Br)cc2)n1
A) 6.18

----------
# experimentalDetails: Tmax in rat at 3 mg/kg, po
# Assay type: ADME, organism-based
# Parameters: dose 3 mg/kg, route oral
# runConditions: in vivo
recordedMetric: Tmax (min)
Report as a plain number; the unit min is understood.

Q) Reported Tmax, compound Cc1cc(NCCc2ccc[n+]([O-])c2)nc(-c2ccc(Br)cc2)n1 : ____
A) 15

----------
# experimentalDetails: Half life in rat at 1 mg/kg, iv
# Assay type: ADME, organism-based
# Parameters: dose 1 mg/kg, route intravenous
# runConditions: in vivo
recordedMetric: half-life (h)
Note: unit h is implicit; provide only the numeric part.

Q) Consider the compound Cc1cc(NCCc2ccc[n+]([O-])c2)nc(-c2ccc(Br)cc2)n1 and give its measured half-life.
A) 1.2

----------
# assayedTarget: Glucose-dependent insulinotropic receptor (Homo sapiens)
# experimentalDetails: Agonist activity at human GPR119 expressed in HEK293 cells co-transfected with pCRE-Luc assessed as induction in cAMP level after 6 hrs by luciferase reporter gene assay relative to 10 uM of 2-{[2-(4-Bromophenyl)-6-methylpyrimidin-4-yl]amino}ethanol
# Format: functional, cell-based
recordedMetric: EC (µM)

# molecule, assayedTarget, recordedNumber
measured = [
    ("Cc1cc(NCCO)nc(-c2ccc(I)cc2)n1", "Glucose-dependent insulinotropic receptor (Homo sapiens)", 19),
    ("Cc1cc(NC(C)CO)nc(-c2ccc(Br)cc2)n1 (stereo unspecified)", "Glucose-dependent insulinotropic receptor (Homo sapiens)", 13),
    ("OCCNc1cc(C(F)F)nc(-c2ccc(Br)cc2)n1", "Glucose-dependent insulinotropic receptor (Homo sapiens)", 8.2),
]

[I] CCc1cc(NCCO)nc(-c2ccc(Br)cc2)n1
[II] Cc1cc(NCC(C)O)nc(-c2ccc(Br)cc2)n1 (stereo unspecified)
[III] COCCNc1cc(C)nc(-c2ccc(Br)cc2)n1
Q) Ascending by EC, please: list the molecules accordingly. Give your ranking as a list of the labels in the requested order.
A) III, II, I
(III: 1.8 µM, II: 3.6 µM, I: 5.9 µM)
